This collection of values is drawn from patent US20210179715A1.

# experimental_target: SNA
# test_details: BIAcore
metric_name: pKd
Entry type: numeric. Quantity: pKd, the -log10 of concentration in molar units.

Data point: LY6G6D (other) NRMRCYNCGGSPSSSCKEAVTTCGEGRPQPGLEQIKLPGNPPVTLIHQHPACVAAHHCNQVETESVGDVTYPAHRDCYLGDLCNS ; pKd = 9.57
